Molecular target: Carnitine O-palmitoyltransferase 1, muscle isoform (Homo sapiens)
Sequence (Q92523 whole entry, canonical isoform): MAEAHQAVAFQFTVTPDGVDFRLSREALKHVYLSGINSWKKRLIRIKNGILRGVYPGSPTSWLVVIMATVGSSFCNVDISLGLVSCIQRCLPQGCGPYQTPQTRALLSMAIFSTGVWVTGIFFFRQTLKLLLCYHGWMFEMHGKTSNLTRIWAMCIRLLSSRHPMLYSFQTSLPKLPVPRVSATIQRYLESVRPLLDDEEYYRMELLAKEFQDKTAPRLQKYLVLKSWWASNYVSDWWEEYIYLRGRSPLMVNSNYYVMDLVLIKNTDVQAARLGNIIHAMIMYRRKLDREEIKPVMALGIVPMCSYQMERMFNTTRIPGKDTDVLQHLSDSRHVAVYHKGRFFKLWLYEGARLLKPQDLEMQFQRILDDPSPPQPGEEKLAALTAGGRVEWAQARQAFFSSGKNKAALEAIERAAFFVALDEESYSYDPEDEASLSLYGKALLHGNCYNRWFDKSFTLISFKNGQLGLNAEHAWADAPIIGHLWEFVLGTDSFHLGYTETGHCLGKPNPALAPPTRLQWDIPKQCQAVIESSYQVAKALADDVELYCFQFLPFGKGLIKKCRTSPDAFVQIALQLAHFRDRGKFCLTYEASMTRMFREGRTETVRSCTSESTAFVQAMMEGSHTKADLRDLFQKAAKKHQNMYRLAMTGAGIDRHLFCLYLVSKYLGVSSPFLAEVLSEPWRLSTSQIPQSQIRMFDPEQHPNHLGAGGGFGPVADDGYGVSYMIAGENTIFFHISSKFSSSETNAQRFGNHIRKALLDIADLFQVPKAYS
Experiment: SUPPLEMENTARY: Inhibition of Carnitine palmitoyltransferase 1, muscle isoform
assay-endpoint: IC50 (µM)
Please state the figure in µM; there is no need to write the unit.

{"entry-smiles": "COc1ccc(Cl)cc1S(=O)(=O)N1CCOc2c(Cl)cc(C(=O)Nc3ccc(C(=O)O)cc3)cc21", "test-result": 2.61}
{"entry-smiles": "O=C(Cn1cc(-c2ccccc2)c2ccccc21)Nc1ccc(C(=O)O)cc1", "test-result": 0.512}
{"entry-smiles": "O=C1CN(c2cccc(-c3n[nH]c([C@H]4CCCCN4C(=O)COc4ccccc4)n3)c2)C(=O)N1", "test-result": 61.8}

Now consider the entry below.
Ask: Dear colleague, I am looking for the recorded IC50 of the following compound: "COc1ccc(Cl)cc1CN1C(=O)OCc2ccc(C(=O)Nc3ccc(CC(=O)O)cc3)cc21"
Reply: 13

All figures here come from ChEMBL document CHEMBL3431459.
